- System name: human GPR84 receptor (Homo sapiens)
- Construct: frozen aliquots prepared by acCELLerate
- Sequence (Q9NQS5 whole entry): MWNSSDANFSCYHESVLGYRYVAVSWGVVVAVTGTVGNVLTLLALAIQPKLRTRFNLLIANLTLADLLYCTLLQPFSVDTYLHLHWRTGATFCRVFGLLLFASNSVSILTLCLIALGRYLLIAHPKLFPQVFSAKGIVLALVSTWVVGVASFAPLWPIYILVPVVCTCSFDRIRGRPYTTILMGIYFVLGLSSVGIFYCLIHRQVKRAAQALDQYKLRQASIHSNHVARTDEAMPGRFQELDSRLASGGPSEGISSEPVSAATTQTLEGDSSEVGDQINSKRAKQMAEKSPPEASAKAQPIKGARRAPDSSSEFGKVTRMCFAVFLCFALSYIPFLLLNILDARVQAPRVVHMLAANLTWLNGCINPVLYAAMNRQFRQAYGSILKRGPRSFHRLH
- Method: cAMP HTRF assay for identification of cellular GPR84 antagonists
- Measurement parameters: CHO-K1 cells stably expressing human GPR84; Forskolin plus agonist 6-OAU; cAMP HTRF readout; average or median values
Quantity: IC50 (nM)
Report the value in nM with no unit label.

I would be grateful if you could share the reported IC50 for O=C(NCc1nccs1)c1oc2ccc3cn(C[C@H]4COCCO4)nc3c2c1C(F)(F)F [Example 12] .
18

Continuing:
Item O=C(NC[C@@H]1COCCO1)c1oc2ccc3cn(C[C@H]4COCCO4)nc3c2c1C(F)(F)F [Example 1] has what recorded IC50?
16

I'd like to know its IC50. The molecule in question is Cc1cc2oc(C(=O)NCc3ncco3)c(C(F)(F)F)c2c2nn(Cc3ccccn3)cc12 [Example 33]
100
